Just for reference, patent US20180338964A1 is where these values come from.

# target of assay: plasminogen kringle 1 (Homo sapiens, UniProt P00747)
# Construct: Signal intensities from free tranexamic acid are reduced when recombinant kringle 1 protein is added
# Sequence (P00747 103-181 limits assumed): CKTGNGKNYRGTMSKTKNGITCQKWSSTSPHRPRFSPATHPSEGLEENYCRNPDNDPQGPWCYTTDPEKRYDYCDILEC
# assay remarks: NMR competition assay (1D T1rho) for binding to plasminogen kringle 1, tranexamic acid as reference
Doc: threshold 200 nM (exclusive). Items with Kd beneath it return yes; others return no.

# structure smiles string, assigned class
measured = [
    ("O=c1cc([C@H]2CCN[C@@H](c3ccc(Cl)cc3)C2)o[nH]1", "yes"),
    ("O=c1cc([C@H]2CCN[C@@H](c3ccc(C(F)(F)F)nc3)C2)o[nH]1", "no"),
    ("Cc1cc([C@H]2C[C@@H](c3cc(=O)[nH]o3)CCN2)ccc1C(F)(F)F", "yes"),
    ("CC(C)(C)c1cccc([C@H]2C[C@@H](c3cc(=O)[nH]o3)CCN2)c1", "no"),
    ("O=c1cc([C@H]2CCN[C@@H](Cc3cc(F)c(F)c(F)c3)C2)o[nH]1", "yes"),
    ("O=c1cc([C@H]2CCN[C@@H](c3ccc(C(F)(F)F)cc3F)C2)o[nH]1", "no"),
]

* * *

Property: Kd; scope: individual compounds
# target of assay: plasminogen kringle 1 (Homo sapiens, UniProt P00747)
# Construct: Signal intensities from free tranexamic acid are reduced when recombinant kringle 1 protein is added
# assay remarks: NMR competition assay (1D T1rho) for binding to plasminogen kringle 1, tranexamic acid as reference
# Experimental: The NMR experiment identifies compounds binding to the lysine binding pocket in a competition assay where tranexamic acid was used as reference compound and 1D T1rho experiments were used for detection. Signal intensities from free tranexamic acid are reduced when recombinant kringle 1 protein is added due to binding to this protein. The NMR signals from tranexamic acid regain intensity when an added compound displaces it from the lysine binding pocket of kringle 1. […]

# structure smiles string, Kd [nM]
measured = [
    ("O=c1cc([C@H]2CCN[C@@H](CN3CCn4c(nnc4C(F)(F)F)C3)C2)o[nH]1", 240),
    ("O=c1cc([C@H]2CCN[C@@H](COC3CCCCC3)C2)o[nH]1", 300),
    ("O=c1cc([C@H]2CCN[C@@H](c3cc(F)c(F)cc3F)C2)o[nH]1", 300),
    ("O=c1cc([C@H]2CCN[C@@H](c3ccc(C(F)(F)F)cc3)C2)o[nH]1", 100),
    ("O=c1cc([C@H]2CCN[C@@H](c3ccc(OC(F)(F)F)cc3F)C2)o[nH]1", 300),
    ("CC(C)(C)c1ccc(C[C@H]2C[C@@H](c3cc(=O)[nH]o3)CCN2)cc1", 300),
    ("Cn1nnc([C@H]2C[C@@H](c3cc(=O)[nH]o3)CCN2)n1", 200),
    ("O=c1cc([C@H]2CCN[C@@H](c3ccc(F)cc3)C2)o[nH]1", 600),
    ("CC(C)(C)c1ccc(C[C@@H]2C[C@@H](c3cc(=O)[nH]o3)CCN2)cc1", 100),
    ("Cc1cc(C(F)(F)F)ccc1[C@H]1C[C@@H](c2cc(=O)[nH]o2)CCN1", 300),
    ("O=c1cc([C@H]2CCN[C@@H](CN3CCC[C@H]3C(F)(F)F)C2)o[nH]1", 400),
]

* * *

// reported pKd per item
# target of assay: plasminogen kringle 1 (Homo sapiens)
# Construct: Signal intensities from free tranexamic acid are reduced when recombinant kringle 1 protein is added
# assay remarks: NMR competition assay (1D T1rho) for binding to plasminogen kringle 1, tranexamic acid as reference
pKd: −log10 of the molar value.
assay metric: pKd

# structure smiles string, target of assay, reported result
data = [
    ("O=c1cc([C@H]2CCN[C@@H](Cc3ccc(F)cc3F)C2)o[nH]1", "plasminogen kringle 1 (Homo sapiens)", 7.00),
    ("O=c1cc([C@H]2CCN[C@@H](Cc3ccc(C(F)(F)F)c(F)c3)C2)o[nH]1", "plasminogen kringle 1 (Homo sapiens)", 6.62),
    ("CS(=O)(=O)c1ccc(C[C@H]2C[C@@H](c3cc(=O)[nH]o3)CCN2)cc1", "plasminogen kringle 1 (Homo sapiens)", 6.40),
    ("O=c1cc([C@H]2CCN[C@@H](Cc3ccc(F)c(F)c3)C2)o[nH]1", "plasminogen kringle 1 (Homo sapiens)", 7.00),
    ("CC(C)(C)c1cc(C[C@H]2C[C@@H](c3cc(=O)[nH]o3)CCN2)cc(C(C)(C)C)c1", "plasminogen kringle 1 (Homo sapiens)", 6.00),
]
